- System: Klebsiella pneumoniae
- MEASUREMENT_PROTOCOL: Antibacterial activity against Klebsiella pneumoniae ATCC 700603 assessed as bacterial growth inhibition by CLSI protocol based assay
- Format: functional
The reader will find reported MIC values listed item by item below.

Examples with answers:
O=C1COc2ccc(N3C(=O)O[C@H]4C[C@@H](NCCn5c(=O)ccc6ccc(C(=O)O)cc65)CC[C@@H]43)nc2N1 : > 64 µg/mL
COc1ccc2ccc(=O)n(CCN[C@@H]3CC[C@@H]4[C@H](C3)OC(=O)N4c3ccc4c(n3)NC(=O)CO4)c2n1 : 8 µg/mL

stdin: Notebook: pull reported MIC for Klebsiella pneumoniae, entry N#Cc1cnc2ccc(=O)n(CCN[C@H]3CC[C@H]4[C@H](C3)OC(=O)N4c3ccc4c(n3)NC(=O)CO4)c2c1
stdout: 8 µg/mL

stdin: API: value(readout=MIC, system=Klebsiella pneumoniae) for record COc1ncc2ccc(=O)n(CCN[C@H]3CC[C@H]4[C@H](C3)OC(=O)N4c3ccc4c(n3)NC(=O)CO4)c2n1
stdout: > 64 µg/mL

stdin: Under Klebsiella pneumoniae: MIC value of COc1ccc2ccc(=O)n(CCN[C@H]3CC[C@H]4[C@H](C3)OC(=O)N4c3ccc4c(n3)NC(=O)CS4)c2n1 ?
stdout: 2 µg/mL

stdin: Record COc1ccc2ccc(=O)n(CCCN[C@H]3CC[C@H]4[C@H](C3)OC(=O)N4c3ccc4c(n3)NC(=O)CO4)c2n1 : what is its MIC with Klebsiella pneumoniae?
stdout: 8 µg/mL

stdin: Short answer please: MIC, Klebsiella pneumoniae, entry COc1cc2c(ccc(=O)n2CCN[C@H]2CC[C@H]3[C@H](C2)OC(=O)N3c2ccc3c(n2)NC(=O)CO3)cn1
stdout: 32 µg/mL

----------
Below: a set of entries, each annotated with reported pIC50.
- MEASUREMENT_PROTOCOL: Inhibition of Escherichia coli topoisomerase 4 assessed as reduction in decatenation
Schema: pIC50 number; meaning minus log10 of the concentration expressed in molar units.

Example molecules with recorded pIC50:
COc1cnc2ccc(=O)n(CCCN[C@H]3CC[C@H]4[C@H](C3)OC(=O)N4c3ccc4c(n3)NC(=O)CO4)c2c1 : 7.82
O=C(O)c1cn(C2CC2)c2cc(N3CCNCC3)c(F)cc2c1=O : 7.52
N#Cc1cnc2ccc(=O)n(CCCN[C@H]3CC[C@H]4[C@H](C3)OC(=O)N4c3ccc4c(n3)NC(=O)CO4)c2c1 : 5.37
COc1ccc2ccc(=O)n(CCN[C@H]3CC[C@H]4[C@H](C3)OC(=O)N4c3ccc4c(n3)NC(=O)CO4)c2n1 : 8.00
N#Cc1cnc2ccc(=O)n(CCN[C@H]3CC[C@H]4[C@H](C3)OC(=O)N4c3ccc4c(n3)NC(=O)CO4)c2c1 : 7.77
COc1ccc2ccc(=O)n(CCN[C@H]3CC[C@H]4[C@H](C3)OC(=O)N4c3ccc4c(n3)NC(=O)CS4)c2n1 : 7.62

stdin: I'd like to know its pIC50. The molecule in question is COc1cnc2ccc(=O)n(CCN[C@H]3CC[C@H]4[C@H](C3)OC(=O)N4c3ccc4c(n3)NC(=O)CO4)c2c1
stdout: 7.00

stdin: Entry under review: N#Cc1ccc2ccc(=O)n(CCN[C@H]3CC[C@H]4[C@H](C3)OC(=O)N4c3ccc4c(n3)NC(=O)CO4)c2c1 . Reported pIC50?
stdout: 6.64

stdin: Can you look up the measured pIC50 of O=c1ccc2ncc(=O)n3c2n1C[C@H]3CN1CCC(NCc2cc3c(cn2)OCCC3)CC1 for me?
stdout: 7.46
